Give IC50 for every item shown.
System: JIMT-1
Test: Antiproliferative activity against human JIMT-1 cells after 72 hrs by Cell Titer Glo assay
Assay type: functional, cell-based
Conditions: JIMT-1, 72 h
State just the number; it will be interpreted in nM.

Lab request: please report IC50 under test system JIMT-1 for CC(C)CNc1ccnc(NCc2csc(-c3ccccc3)n2)n1 1800

Lab request: please report IC50 under test system JIMT-1 for CCN(Cc1ccncc1)Cc1c(O)ccc2c(-c3cc4ccccc4oc3=O)cc(=O)oc12 1150

----------
Test system: MCF-12A
Experiment: Antiproliferative activity against human MCF-12A cells after 72 hrs by Cell Titer Glo assay
Type: functional, cell-based
pIC50: −log10 of the molar value.
metric.name: pIC50

Look up pIC50: COc1ccc(-c2cc(Nc3ccnc(N4CCOCC4)n3)on2)cc1 < 5.00

Look up pIC50: CCN(Cc1ccncc1)Cc1c(O)ccc2c(-c3cc4ccccc4oc3=O)cc(=O)oc12 < 5.00

Look up pIC50: CC(C)CNc1ccnc(NCc2csc(-c3ccccc3)n2)n1 5.46

----------
Assay: Kinetic solubility in sodium phosphate buffer at pH 7.4 and at 25 degreeC after 2 hrs
Assay type: physicochemical
Conditions: read-out: Kinetic_solubility
metric.name: solubility kinetic at 2 h

Look up solubility kinetic at 2 h: COc1ccc(-c2cc(Nc3ccnc(N4CCOCC4)n3)on2)cc1 < 1 µM

----------
Test: Half-life in human liver microsomes
Type: ADME, Microsome
metric.name: half-life (min)
State just the number; it will be interpreted in min.

Look up half-life: COc1ccc(-c2cc(Nc3ccnc(N4CCOCC4)n3)on2)cc1 12

----------
Test: Apparent permeability of the compound across basolateral to apical side in human Caco-2 cells
Assay type: ADME, cell-based
metric.name: Papp B→A (×10⁻⁶ cm/s)
State just the number; it will be interpreted in ×10⁻⁶ cm/s.

Look up Papp B→A: COc1ccc(-c2cc(Nc3ccnc(N4CCOCC4)n3)on2)cc1 24.1

----------
Assay: Apparent permeability of the compound across apical to basolateral side in human Caco-2 cells
Format: ADME, cell-based
metric.name: Papp A→B (×10⁻⁶ cm/s)
State just the number; it will be interpreted in ×10⁻⁶ cm/s.

Look up Papp A→B: COc1ccc(-c2cc(Nc3ccnc(N4CCOCC4)n3)on2)cc1 19.1

----------
Give IC50 for every item shown.
System: BT-474
Test: Antiproliferative activity against T-DM1-resistant human BT-474 cells after 72 hrs by Cell Titer Glo assay
Assay type: functional, cell-based
Details: BT-474, 72 h
State just the number; it will be interpreted in µM.

Look up IC50: CC(C)CNc1ccnc(NCc2csc(-c3ccccc3)n2)n1 3.73

Look up IC50: COc1ccc(-c2cc(Nc3ccnc(N4CCOCC4)n3)on2)cc1 0.37

Look up IC50: CCN(Cc1ccncc1)Cc1c(O)ccc2c(-c3cc4ccccc4oc3=O)cc(=O)oc12 0.99
